method-summary: Metabolic stability in dog hepatocytes assessed as intrinsic clearance per 10^6 cells at 1 uM measured upto 180 mins by LC-MS/MS analysis
Type: ADME, cell-based, Canis lupus familiaris, Hepatocyte
condition-description: read-out: CLH
measure-name: hepatocyte CLint at 1 µM

COc1cc(C(=O)NC[C@](O)(c2cc(C(C)(C)O)c(F)c(-c3ccc(F)cc3)n2)C(F)(F)F)cc2cc(C)nnc12    6.4 µL/min/1e6 cells

---

method-summary: Drug recovery in bile duct cannulated rat bile measured for 48 hrs
Type: ADME, tissue-based
condition-description: read-out: Drug recovery
measure-name: dose excreted at 48 h (%)

COc1cc(C(=O)NC[C@](O)(c2cc3c(c(-c4ccc(F)cc4)n2)OC[C@]3(C)NS(C)(=O)=O)C(F)(F)F)cn2cc(CO)nc12    77

---

method-summary: Metabolic stability in rat hepatocytes assessed as intrinsic clearance per 10^6 cells at 1 uM measured upto 180 mins by LC-MS/MS analysis
Assay type: ADME, cell-based, Hepatocyte
condition-description: read-out: CLH
Reported hepatocyte CLint at 1 µM values for a set of compounds
measure-name: hepatocyte CLint at 1 µM (µL/min/1e6 cells)

COc1cc(C(=O)NC[C@](O)(c2cc(C(C)(C)O)c(F)c(-c3ccc(F)cc3)n2)C(F)(F)F)cc2cc(F)nnc12    93
COc1cc(C(=O)NC[C@](O)(c2cc3c(c(-c4ccc(F)cc4)n2)OC[C@]3(C)NS(C)(=O)=O)C(F)(F)F)cc2cccnc12    73
COc1cc(C(=O)NC[C@](O)(c2cc3c(c(-c4ccc(F)cc4)n2)OC[C@]3(C)NC(C)=O)C(F)(F)F)cc2cc(C)cnc12    54
COc1cc(C(=O)NC[C@](O)(c2cc3c(c(-c4ccc(F)cc4)n2)OC[C@]3(C)N)C(F)(F)F)ccc1OC[C@@H](C)O    54
COc1cc(C(=O)NC[C@](O)(c2cc(C(C)(C)O)c(F)c(-c3ccc(F)cc3)n2)C(F)(F)F)cc2cc(Cl)nnc12    13
COc1cc(C(=O)NC[C@](O)(c2cc(C(C)(C)O)c(F)c(-c3ccc(F)cc3)n2)C(F)(F)F)cc2cc(C)cnc12    28

---

method-summary: Half life in Balb/c mouse at 2.5 mg/kg, iv measured upto 24 hrs by LC-MS/MS analysis
Assay type: ADME, organism-based
condition-description: in vivo
measure-name: half-life (h)

COc1cc(C(=O)NC[C@](O)(c2cc(C(C)(C)O)c(F)c(-c3ccc(F)cc3)n2)C(F)(F)F)cc2cc(C)nnc12    1.95

---

method-summary: Metabolic stability in human hepatocytes assessed as intrinsic clearance per 10^6 cells at 1 uM measured upto 180 mins by LC-MS/MS analysis
Assay type: ADME, cell-based, Hepatocyte
condition-description: read-out: CLH
measure-name: hepatocyte CLint at 1 µM (µL/min/1e6 cells)

COc1cc(C(=O)NC[C@](O)(c2cc3c(c(-c4ccc(F)cc4)n2)OC[C@]3(C)NC(C)=O)C(F)(F)F)cc2cccnc12    8.8
COc1cc(C(=O)NC[C@](O)(c2cc(C(C)(C)O)c(F)c(-c3ccc(F)cc3)n2)C(F)(F)F)cc2cccnc12    4.1
COc1cc(C(=O)NC[C@](O)(c2cc(C(C)(C)O)c(F)c(-c3ccc(F)cc3)n2)C(F)(F)F)cc2cc(C)c(F)nc12    4.3
COc1cc(C(=O)NC[C@](O)(c2cc3c(c(-c4ccc(F)cc4)n2)OC[C@]3(C)NS(C)(=O)=O)C(F)(F)F)cc2cc(C)cnc12    3.7
COc1cc(C(=O)NC[C@](O)(c2cc(C(C)(C)O)c(Cl)c(-c3ccc(F)cc3)n2)C(F)(F)F)cc2cc(C)cnc12    4.3
